assay_target: T1, canine PD-L1 (Acro Biosystems, Cat #PDL-C52H4) (canine, UniProt E2RKZ5 19-236)
T1 construct: not shown: The vendor's tag, probably a polyhistidine tag
T1 sequence: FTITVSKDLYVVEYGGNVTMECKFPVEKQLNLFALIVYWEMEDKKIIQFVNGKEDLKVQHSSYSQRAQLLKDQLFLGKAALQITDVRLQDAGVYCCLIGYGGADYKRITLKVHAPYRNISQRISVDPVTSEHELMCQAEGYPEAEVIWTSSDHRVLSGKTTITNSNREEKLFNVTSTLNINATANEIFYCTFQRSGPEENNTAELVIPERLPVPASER
experimental_details: ELISA

{"binder": "69D10 (antibody, human IgG1, V domains shown) VH: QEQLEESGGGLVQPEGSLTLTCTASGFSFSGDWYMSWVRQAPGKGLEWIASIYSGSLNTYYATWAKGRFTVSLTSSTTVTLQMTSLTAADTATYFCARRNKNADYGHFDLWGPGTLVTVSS VL: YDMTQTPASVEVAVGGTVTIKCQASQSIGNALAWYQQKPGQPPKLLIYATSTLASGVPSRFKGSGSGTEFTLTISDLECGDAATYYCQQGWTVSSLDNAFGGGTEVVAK", "binding result": "no binding"}
{"binder": "33E8 (antibody, human IgG1, V domains shown) VH: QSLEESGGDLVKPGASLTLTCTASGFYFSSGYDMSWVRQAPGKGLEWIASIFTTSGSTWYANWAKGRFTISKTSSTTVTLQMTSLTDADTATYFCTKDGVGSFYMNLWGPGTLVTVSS VL: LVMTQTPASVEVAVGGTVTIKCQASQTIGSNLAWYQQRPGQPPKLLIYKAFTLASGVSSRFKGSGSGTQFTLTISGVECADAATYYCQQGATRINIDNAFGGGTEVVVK", "binding result": "no binding"}
{"binder": "27A2 (antibody, human IgG1, V domains shown) VH: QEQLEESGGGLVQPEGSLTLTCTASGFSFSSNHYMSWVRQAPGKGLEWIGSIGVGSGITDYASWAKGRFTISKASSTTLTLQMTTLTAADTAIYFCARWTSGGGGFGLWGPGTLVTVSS VL: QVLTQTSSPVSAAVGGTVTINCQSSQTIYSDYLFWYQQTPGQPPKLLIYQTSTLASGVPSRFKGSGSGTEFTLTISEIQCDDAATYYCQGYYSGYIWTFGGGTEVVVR", "binding result": "no binding"}

Attribution: patent US20250171542A1
